Provenance of the data: ChEMBL document CHEMBL1129423

Attribute: Glucose normalisation
Tested on: Mus musculus
Experiment: In vivo hypoglycemic activity expressed as percent glucose normalization in ob/ob mice at 0.1 mg/Kg
Format: functional
// return numeric value only (unit: %, not printed)

>  <compound>
Cc1ccccc1-c1nc(Cc2cc3cc(CC4SC(=O)NC4=O)ccc3o2)c(C)o1 (stereo not drawn)

>  <measured_target>
Mus musculus

>  <measured_result>
91

$$$$

Query: Glucose normalisation; subject: Cc1oc(-c2cccc(F)c2)nc1Cc1cc2cc(CC3SC(=O)NC3=O)ccc2o1 (stereo not drawn) 88

For the compound shown here, Cc1oc(C2CCCCC2)nc1Cc1cc2cc(CC3SC(=O)NC3=O)ccc2o1 (stereo not drawn) , give the reported Glucose normalisation. 90
